FYI, the data here is from patent US4320127A.

procedure-text: in vivo
condition-label: mouse, po
measure-name: LD50 (mg/kg)

# compound, measure-name, experimental-result
measured = [
    ("CCCCC1C(=O)N2C(c3ccccc3)=Nc3cccnc3N2C1=O (centres unmarked) [Example 13]", "LD50", 2000),
    ("CCCCCCC1=Nc2cccnc2N(C(=O)c2cccnc2)N1 [Example 11]", "LD50", 2000),
]

###

Test system: tetrabenazine
procedure-text: tetrabenazine antagonism (Brodie et al.)
Type: in vivo
condition-label: tetrabenazine antagonism, mice, oral
Counter-ions that a name gives are not always drawn.

# compound, target-system, Therapeutic index
data = [
    ("CCCCCCC1=Nc2cccnc2N(C(=O)c2ccccc2)N1.Cl", "tetrabenazine", 38),
    ("CCCCCCC1=Nc2cccnc2N(C(=O)CC)N1.Cl", "tetrabenazine", 5),
    ("CN(C)CCC=C1c2ccccc2CCc2ccccc21 [Amitriptyline, reference compound]", "tetrabenazine", 18.75),
    ("CCC(=O)N1NC(c2ccc(OC)cc2)=Nc2cccnc21 [Example 5, hydrochloride]", "tetrabenazine", 9.4),
]

###

# ED50 per record follows
Tested on: hexobarbital-narcosis
procedure-text: effect on the duration of hexobarbital-narcosis (Kaergaard)
condition-label: Mus musculus, po
Where a name gives a salt, the structure may show the parent alone.

# molecule, ED50
records = [
    ("CCC(=O)N1NC(c2cc(OC)c(OC)c(OC)c2)=Nc2cccnc21.Cl", "~350 mg/kg"),
    ("CCCCCCC1=Nc2cccnc2N(C(=O)c2cccnc2)N1", "140 mg/kg"),
    ("CCC(=O)N1NC(c2ccc(OC)cc2)=Nc2cccnc21 [Example 5, hydrochloride]", "~170 mg/kg"),
    ("CCCC(C)(COC(N)=O)COC(N)=O [Meprobamate, reference compound]", "260 mg/kg"),
    ("CCC(=O)N1NC(CCc2ccccc2)=Nc2cccnc21", "> 400 mg/kg"),
    ("CCCCCCC1=Nc2cccnc2N(C(=O)c2ccccc2)N1.Cl", "80 mg/kg"),
    ("CCCCCCC1=Nc2cccnc2N(C(=O)CC)N1.Cl", "~400 mg/kg"),
]

###

Tested on: tetrabenazine
procedure-text: tetrabenazine antagonism (Brodie et al.)
Assay type: in vivo
condition-label: Mus musculus; mice, oral administration
Structures can show the parent of a compound that is named as a salt.
# ED50 per record follows
measure-name: ED50 (mg/kg)

# molecule, experimental-result
measured = [
    ("CCC(=O)N1NC(c2ccc(OC)cc2)=Nc2cccnc21 [Example 5, hydrochloride]", 80),
    ("CCCCCCC1=Nc2cccnc2N(C(=O)c2ccccc2)N1.Cl", 10),
    ("CCCCCCC1=Nc2cccnc2N(C(=O)CC)N1.Cl", 300),
    ("CN(C)CCC=C1c2ccccc2CCc2ccccc21 [Amitriptyline, reference compound]", 12),
]

###

Tested on: reserpine
procedure-text: reserpine antagonism (Brodie et al.)
Assay type: in vivo
condition-label: reserpine antagonism, mice, oral
Counter-ions that a name gives are not always drawn.
# Therapeutic index per record follows

# compound, Therapeutic index
data = [
    ("CCCCCCC1=Nc2cccnc2N(C(=O)c2ccccc2)N1.Cl [Example 18]", 12.7),
    ("CCC(=O)N1NC(c2ccc(OC)cc2)=Nc2cccnc21 [Example 5, hydrochloride]", 4.4),
    ("CCCCCCC1=Nc2cccnc2N(C(=O)CC)N1.Cl [Example 1]", 5),
    ("CN(C)CCC=C1c2ccccc2CCc2ccccc21 [Amitriptyline, reference compound]", 3.46),
]

###

# LD50 per record follows
procedure-text: in vivo
condition-label: mouse, mice, oral administration
Where a name gives a salt, the structure may show the parent alone.

# compound, value-unit, LD50
records = [
    ("CCCCCCC1=Nc2cccnc2N(C(=O)c2ccccc2)N1.Cl [Example 18]", "mg/kg", 380),
    ("CCCCCCC1=Nc2cccnc2N(C(=O)CC)N1.Cl [Example 1]", "mg/kg", 1500),
    ("CCC(=O)N1NC(CCc2ccccc2)=Nc2cccnc21 [Example 7]", "mg/kg", 2000),
    ("CCC(=O)N1NC(c2cc(OC)c(OC)c(OC)c2)=Nc2cccnc21.Cl [Example 6]", "mg/kg", 2000),
    ("CCC(=O)N1NC(c2ccc(OC)cc2)=Nc2cccnc21 [Example 5, hydrochloride]", "mg/kg", 750),
]

###

System: motility of mice
procedure-text: effect on the motility of mice in a Dews apparatus (Borsy et al.)
condition-label: motility, mice, oral
Counter-ions that a name gives are not always drawn.
measure-name: Therapeutical index

# molecule, experimental-result
measured = [
    ("CCCCCCC1=Nc2cccnc2N(C(=O)CC)N1.Cl", 7.5),
    ("CCC(=O)N1NC(c2ccc(OC)cc2)=Nc2cccnc21 [Example 5, hydrochloride]", 4.4),
    ("CCCC(C)(COC(N)=O)COC(N)=O [Meprobamate, reference compound]", 4.1),
]

###

System: acetic acid writhing
procedure-text: analgesic effect, acetic acid writhing test
Type: in vivo
condition-label: mice, oral
Counter-ions that a name gives are not always drawn.
# Therapeutical index per record follows

# compound, Therapeutical index
records = [
    ("CCC(=O)N1NC(c2cc(OC)c(OC)c(OC)c2)=Nc2cccnc21.Cl [Example 6]", 9.3),
    ("CCC(=O)N1NC(c2ccc(OC)cc2)=Nc2cccnc21 [Example 5, hydrochloride]", 14.4),
    ("CCCCCCC1=Nc2cccnc2N(C(=O)c2cccnc2)N1 [Example 11]", 5),
    ("CCCCCCC1=Nc2cccnc2N(C(=O)c2ccccc2)N1.Cl [Example 18]", 10),
]
